- TARGET OR SYSTEM: UniProt P41594
- Sequence (P41594 21-1212 limits assumed): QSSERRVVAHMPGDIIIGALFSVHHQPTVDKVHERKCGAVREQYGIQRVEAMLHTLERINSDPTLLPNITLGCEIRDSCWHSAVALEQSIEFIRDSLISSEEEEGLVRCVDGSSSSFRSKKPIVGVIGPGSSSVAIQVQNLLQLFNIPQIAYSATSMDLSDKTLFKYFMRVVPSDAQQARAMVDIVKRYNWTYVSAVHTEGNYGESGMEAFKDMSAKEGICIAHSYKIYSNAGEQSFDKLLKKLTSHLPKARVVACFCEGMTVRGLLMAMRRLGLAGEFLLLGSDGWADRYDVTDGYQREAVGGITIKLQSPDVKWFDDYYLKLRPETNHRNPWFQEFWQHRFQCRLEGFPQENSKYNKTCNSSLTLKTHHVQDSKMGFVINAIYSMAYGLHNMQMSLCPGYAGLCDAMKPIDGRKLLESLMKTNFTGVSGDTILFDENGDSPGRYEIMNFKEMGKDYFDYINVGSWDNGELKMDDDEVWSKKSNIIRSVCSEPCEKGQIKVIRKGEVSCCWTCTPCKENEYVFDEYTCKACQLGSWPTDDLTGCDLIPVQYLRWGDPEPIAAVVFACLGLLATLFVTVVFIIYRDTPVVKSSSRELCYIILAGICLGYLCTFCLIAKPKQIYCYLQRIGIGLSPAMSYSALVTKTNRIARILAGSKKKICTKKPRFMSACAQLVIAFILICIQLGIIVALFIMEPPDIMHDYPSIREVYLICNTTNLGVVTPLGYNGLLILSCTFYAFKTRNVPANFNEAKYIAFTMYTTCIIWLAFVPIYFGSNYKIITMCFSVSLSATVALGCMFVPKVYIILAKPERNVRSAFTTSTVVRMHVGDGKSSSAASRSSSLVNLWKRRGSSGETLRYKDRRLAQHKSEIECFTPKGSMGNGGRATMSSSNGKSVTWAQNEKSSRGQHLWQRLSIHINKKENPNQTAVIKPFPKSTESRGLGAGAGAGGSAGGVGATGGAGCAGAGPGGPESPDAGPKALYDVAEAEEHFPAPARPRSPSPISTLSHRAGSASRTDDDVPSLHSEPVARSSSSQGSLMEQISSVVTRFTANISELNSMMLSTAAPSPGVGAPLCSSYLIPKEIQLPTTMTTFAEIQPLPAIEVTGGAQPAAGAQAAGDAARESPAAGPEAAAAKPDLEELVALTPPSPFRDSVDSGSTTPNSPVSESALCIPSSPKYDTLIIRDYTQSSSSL
- PROTOCOL: Negative allosteric modulation of human mGlu5 receptor assessed as inhibition of glutamate induced-calcium mobilization relative to glutamate
- Type: functional

{"columns": ["COMPOUND", "Efficacy [%]"],
 "data": [
  ["COCOc1cc(C)nc(C(=O)Nc2nc(C)cs2)c1", 1.9],
  ["Cc1cc(OC2CCOCC2)cc(C(=O)Nc2ccc(F)cn2)n1", -0.2],
  ["Cc1cc(OCC2CCCO2)cc(C(=O)Nc2nc(C)cs2)n1 (stereo unspecified)", 1.5],
  ["Cc1cc(OC2COC2)cc(C(=O)Nc2nc(C)cs2)n1", 0.5],
  ["Cc1cc(OC2CCCOC2)cc(C(=O)Nc2ccccn2)n1 (stereo unspecified)", 0.7],
  ["Cc1cc(O[C@H]2CCOC2)cc(C(=O)Nc2ccc(F)cn2)n1", 1],
  ["Cc1cc(O[C@@H]2CO[C@@H](C)C2)cc(C(=O)Nc2ccc(F)cn2)n1", 2.6],
  ["Cc1cc(OCC2CCOC2)cc(C(=O)Nc2ccc(F)cn2)n1 (stereo unspecified)", 1],
  ["Cc1cc(OC2CCCOC2)cc(C(=O)Nc2nc(C)cs2)n1 (stereo unspecified)", 0.9],
  ["Cc1cc(OC2CCCC2)cc(C(=O)Nc2ccc(F)cn2)n1", -0.7],
  ["Cc1cc(OCC2CCO2)cc(C(=O)Nc2nc(C)cs2)n1 (stereo unspecified)", 1.2]
]}
